Species on record: Rattus norvegicus
Experiment: Open TG-GATES - Regimen: Daily Repeat
Assay type: toxicity, organism-based, Sprague-Dawley
Design: regimen Daily Repeat, gender Male, age 6 weeks
Conditions: in vivo, po, 100 mg/kg, […], tissue Plasma, route gavage, dose level Low, time 28 day
ENDPOINT: Na (meq/L)
Answer in meq/L, number only, no unit symbol.

MOLECULE	Na / meq/L
O=C(O)c1ccccc1Nc1ccccc1 [FENAMIC ACID]	144.6

Exercise: # query: Na of entry CC(=O)[C@@]1(O)CC[C@H]2[C@@H]3C=C(Cl)C4=CC(=O)CC[C@]4(C)[C@H]3CC[C@@]21C [CHLORMADINONE]
Solution: 142

Exercise: # query: Na of entry CCCCNC(=O)NS(=O)(=O)c1ccc(C)cc1 [TOLBUTAMIDE]
Solution: 143

Exercise: # query: Na of entry CC(S)C(=O)NCC(=O)O (centres undefined) [TIOPRONIN]
Solution: 142.8

----------
Organism: Rattus norvegicus
Experiment: Open TG-GATES - Regimen: Daily Repeat
Type: toxicity, organism-based, Sprague-Dawley
Set-up: regimen Daily Repeat, gender Male, age 6 weeks
Conditions: in vivo, po, 1000 mg/kg, […], tissue Plasma, route gavage, dose level High, time 14 day
ENDPOINT: ALP (IU/L)
Answer in IU/L, number only, no unit symbol.

The examples below pair each entry with its known result.
MOLECULE	UNITS_TEXT	ALP
CC(=O)[C@@]1(O)CC[C@H]2[C@@H]3C=C(Cl)C4=CC(=O)CC[C@]4(C)[C@H]3CC[C@@]21C	IU/L	1187.6
CC(S)C(=O)NCC(=O)O (centres undefined)	IU/L	1175.6
CCCCNC(=O)NS(=O)(=O)c1ccc(C)cc1 [TOLBUTAMIDE]	IU/L	1494.8

Proceed to the following item.
Exercise: # query: ALP of entry `O=C(O)c1ccccc1Nc1ccccc1`
Solution: 1270.3

----------
Some compounds, each annotated with its measured Ht.
Species on record: Rattus norvegicus
Experiment: Open TG-GATES - Regimen: Daily Repeat
Format: toxicity, organism-based, Sprague-Dawley
Design: regimen Daily Repeat, gender Male, age 6 weeks
Details: in vivo, po, 300 mg/kg, 72 h, tissue Blood, route gavage, dose level Middle, time 3 day
Answer in %, number only, no unit symbol.

The examples below pair each entry with its known result.
COMPOUND	Ht, %
CC(S)C(=O)NCC(=O)O (centres undefined)	40
O=C(O)c1ccccc1Nc1ccccc1	40.1
CC(=O)[C@@]1(O)CC[C@H]2[C@@H]3C=C(Cl)C4=CC(=O)CC[C@]4(C)[C@H]3CC[C@@]21C	42.3

Exercise: # query: Ht of entry CCCCNC(=O)NS(=O)(=O)c1ccc(C)cc1 [TOLBUTAMIDE]
Solution: 41.8

----------
Organism: Rattus norvegicus
Assay: Open TG-GATES - Regimen: Daily Repeat
Type: toxicity, organism-based, Sprague-Dawley
Design: regimen Daily Repeat, gender Male, age 6 weeks
Settings: in vivo, po, 300 mg/kg, […], tissue Plasma, route gavage, dose level Middle, time 14 day
ENDPOINT: PL (mg/dL)
Answer in mg/dL, number only, no unit symbol.

Exercise: # query: PL of entry CCCCNC(=O)NS(=O)(=O)c1ccc(C)cc1 [TOLBUTAMIDE]
Solution: 158.6

Exercise: # query: PL of entry O=C(O)c1ccccc1Nc1ccccc1 [FENAMIC ACID]
Solution: 160.8

Exercise: # query: PL of entry CC(S)C(=O)NCC(=O)O (centres undefined) [TIOPRONIN]
Solution: 151.8

Exercise: # query: PL of entry CC(=O)[C@@]1(O)CC[C@H]2[C@@H]3C=C(Cl)C4=CC(=O)CC[C@]4(C)[C@H]3CC[C@@]21C [CHLORMADINONE]
Solution: 171.6

----------
Species: Rattus norvegicus
Assay: Open TG-GATES - Regimen: Daily Repeat
Assay type: toxicity, organism-based, Sprague-Dawley
Design: regimen Daily Repeat, gender Male, age 6 weeks
Conditions: in vivo, po, 0 mg/kg, […], tissue Blood, route gavage, dose level Control, time 28 day
ENDPOINT: Ret

COMPOUND	ENDPOINT	RECORDED_RESULT
COc1ccc([C@@H]2Sc3ccccc3N(CCN(C)C)C(=O)[C@@H]2OC(C)=O)cc1	Ret	2.5%
Nc1ccc(Cc2ccc(N)cc2)cc1	Ret	2.2%

Exercise: # query: Ret of entry NS(=O)(=O)c1cc(C(=O)O)c(NCc2ccco2)cc1Cl [FUROSEMIDE]
Solution: 1.8%

----------
Some compounds, each annotated with its measured TERMINAL_BW.
Species: Rattus norvegicus
Test: Open TG-GATES - Regimen: Daily Repeat
Type: toxicity, organism-based, Sprague-Dawley
Set-up: regimen Daily Repeat, gender Male, age 6 weeks
Details: in vivo, po, 1000 mg/kg, […], route gavage, dose level High, time 7 day
Answer in g, number only, no unit symbol.

COMPOUND	UNITS_TEXT	TERMINAL_BW
O=C(O)c1ccccc1Nc1ccccc1 [FENAMIC ACID]	g	253.6
CC(S)C(=O)NCC(=O)O (centres undefined) [TIOPRONIN]	g	254.3
CCCCNC(=O)NS(=O)(=O)c1ccc(C)cc1 [TOLBUTAMIDE]	g	255.2

Exercise: # query: TERMINAL_BW of entry CC(=O)[C@@]1(O)CC[C@H]2[C@@H]3C=C(Cl)C4=CC(=O)CC[C@]4(C)[C@H]3CC[C@@]21C [CHLORMADINONE]
Solution: 245

----------
Organism: Rattus norvegicus
Experiment: Open TG-GATES - Regimen: Daily Repeat
Format: toxicity, organism-based, Sprague-Dawley
Parameters: regimen Daily Repeat, gender Male, age 6 weeks
Conditions: in vivo, po, 300 mg/kg, […], tissue Blood, route gavage, dose level Middle, time 14 day
Some compounds, each annotated with its measured MCHC.
Show the value, then the unit it is measured in.

COMPOUND	MCHC
O=C(O)c1ccccc1Nc1ccccc1 [FENAMIC ACID]	34.2%

Exercise: # query: MCHC of entry CC(=O)[C@@]1(O)CC[C@H]2[C@@H]3C=C(Cl)C4=CC(=O)CC[C@]4(C)[C@H]3CC[C@@]21C [CHLORMADINONE]
Solution: 34%

Exercise: # query: MCHC of entry CCCCNC(=O)NS(=O)(=O)c1ccc(C)cc1 [TOLBUTAMIDE]
Solution: 32.8%

Exercise: # query: MCHC of entry CC(S)C(=O)NCC(=O)O (centres undefined) [TIOPRONIN]
Solution: 33.9%

----------
Species on record: Rattus norvegicus
Assay: Open TG-GATES - Regimen: Daily Repeat
Format: toxicity, organism-based, Sprague-Dawley
Parameters: regimen Daily Repeat, gender Male, age 6 weeks
Conditions: in vivo, po, 100 mg/kg, […], tissue Blood, route gavage, dose level Low, time 7 day
ENDPOINT: Lym (%)
Answer in %, number only, no unit symbol.

The examples below pair each entry with its known result.
COMPOUND	ENDPOINT	RECORDED_RESULT
O=C(O)c1ccccc1Nc1ccccc1 [FENAMIC ACID]	Lym	73
CC(=O)[C@@]1(O)CC[C@H]2[C@@H]3C=C(Cl)C4=CC(=O)CC[C@]4(C)[C@H]3CC[C@@]21C [CHLORMADINONE]	Lym	84
CCCCNC(=O)NS(=O)(=O)c1ccc(C)cc1 [TOLBUTAMIDE]	Lym	74.4

Proceed to the following item.
Exercise: # query: Lym of entry CC(S)C(=O)NCC(=O)O (centres undefined) [TIOPRONIN]
Solution: 79.2

----------
Species: Rattus norvegicus
Experiment: Open TG-GATES - Regimen: Daily Repeat
Assay type: toxicity, organism-based, Sprague-Dawley
Parameters: regimen Daily Repeat, gender Male, age 6 weeks
Details: in vivo, po, 1000 mg/kg, […], tissue Blood, route gavage, dose level High, time 28 day
ENDPOINT: Eos (%)
Answer in %, number only, no unit symbol.

COMPOUND	Eos [%]
O=C(O)c1ccccc1Nc1ccccc1 [FENAMIC ACID]	0.5
CC(=O)[C@@]1(O)CC[C@H]2[C@@H]3C=C(Cl)C4=CC(=O)CC[C@]4(C)[C@H]3CC[C@@]21C [CHLORMADINONE]	1
CCCCNC(=O)NS(=O)(=O)c1ccc(C)cc1 [TOLBUTAMIDE]	1

Proceed to the following item.
Exercise: # query: Eos of entry CC(S)C(=O)NCC(=O)O (centres undefined) [TIOPRONIN]
Solution: 1.2

----------
Species: Rattus norvegicus
Assay: Open TG-GATES - Regimen: Daily Repeat
Assay type: toxicity, organism-based, Sprague-Dawley
Parameters: regimen Daily Repeat, gender Male, age 6 weeks
Details: in vivo, po, 300 mg/kg, […], tissue Plasma, route gavage, dose level Middle, time 14 day
ENDPOINT: gamma-GTP (IU/L)
Answer in IU/L, number only, no unit symbol.

MOLECULE	gamma-GTP / IU/L
CC(=O)[C@@]1(O)CC[C@H]2[C@@H]3C=C(Cl)C4=CC(=O)CC[C@]4(C)[C@H]3CC[C@@]21C	1.8
CC(S)C(=O)NCC(=O)O (centres undefined)	2.2
CCCCNC(=O)NS(=O)(=O)c1ccc(C)cc1 [TOLBUTAMIDE]	1

Proceed to the following item.
Exercise: # query: gamma-GTP of entry `O=C(O)c1ccccc1Nc1ccccc1`
Solution: 1.2

Values compiled from ChEMBL document CHEMBL3885861.
